Values were extracted from patent US5672715A.

Test system: Downy Brome
Assay: pre-emergence herbicide test
Format: in vivo
Settings: Bromus tectorum, pre-emergence, 0.25 lb/A; read-out: % plant inhibition
Kindly return Condition met if reported inhibition at 280.212 g/ha is no lower than 10%; return Condition not met if it is lower.

{"columns": ["Cpd smiles", "Group"],
 "data": [
  ["Cc1c(-c2cc(CS(C)(=O)=O)c(Cl)cc2F)nn(C)c1C(F)(F)F", "Condition not met"],
  ["Cc1c(-c2cc(C(=O)NC(C)C)c(Cl)cc2F)nn(C)c1C(F)(F)F", "Condition met"],
  ["Cc1c(-c2cc(CS)c(Cl)cc2F)nn(C)c1C(F)(F)F", "Condition not met"],
  ["Cc1c(-c2cc(C(=O)OC(C)C)c(Cl)cc2F)nn(C)c1C(F)(F)F", "Condition met"]
]}

---

Test system: Giant Foxtail
Assay: post-emergence herbicide test
Type: in vivo
Conditions: Setaria faberi, post-emergence, 0.25 lb/A; read-out: % plant inhibition
Label scheme for inhibition at 280.212 g/ha: lower than 50% is NO, 50% and above is YES.

{"columns": ["Cpd smiles", "Target under test", "Group"],
 "data": [
  ["Cc1c(-c2cc(C(=O)OCc3ccccc3)c(Cl)cc2F)nn(C)c1C(F)(F)F", "Giant Foxtail", "NO"],
  ["Cc1cc(-c2nn(C)c(C(F)(F)F)c2C)c(F)cc1Cl", "Giant Foxtail", "NO"],
  ["Cc1c(-c2cc(C(=O)OCC(C)C)c(Cl)cc2F)nn(C)c1C(F)(F)F", "Giant Foxtail", "YES"],
  ["C=CCOC(=O)c1cc(-c2nn(C)c(C(F)(F)F)c2C)c(F)cc1Cl", "Giant Foxtail", "YES"],
  ["Cc1c(-c2cc(C(=O)OCC(=O)OC(C)C)c(Cl)cc2F)nn(C)c1C(F)(F)F", "Giant Foxtail", "NO"],
  ["COC(=O)c1cc(-c2nn(C)c(C(F)(F)F)c2C)c(F)cc1Cl", "Giant Foxtail", "NO"],
  ["Cc1c(-c2cc(CBr)c(Cl)cc2F)nn(C)c1C(F)(F)F", "Giant Foxtail", "NO"],
  ["Cc1c(-c2cc(C(=O)NC(C)C)c(Cl)cc2F)nn(C)c1C(F)(F)F", "Giant Foxtail", "YES"],
  ["Cc1c(-c2cc(C(N)=O)c(Cl)cc2F)nn(C)c1C(F)(F)F", "Giant Foxtail", "NO"]
]}
